- measurement-target: Proteinase-activated receptor 2 (Homo sapiens, UniProt P55085)
- Sequence (P55085 whole entry): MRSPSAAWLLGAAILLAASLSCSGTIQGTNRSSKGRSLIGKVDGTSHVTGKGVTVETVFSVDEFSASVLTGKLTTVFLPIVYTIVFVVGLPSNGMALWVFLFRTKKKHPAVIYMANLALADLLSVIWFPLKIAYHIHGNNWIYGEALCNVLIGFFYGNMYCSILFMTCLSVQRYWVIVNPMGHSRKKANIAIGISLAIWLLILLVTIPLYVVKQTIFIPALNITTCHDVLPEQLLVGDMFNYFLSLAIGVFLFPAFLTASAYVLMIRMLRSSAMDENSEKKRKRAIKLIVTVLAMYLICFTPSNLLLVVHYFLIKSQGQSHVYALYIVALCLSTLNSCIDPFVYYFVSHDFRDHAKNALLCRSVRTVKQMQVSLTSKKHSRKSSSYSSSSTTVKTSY
- assay-notes: Antagonist activity at PAR2 in human 1321N1 cells assessed as inhibition of trypsin-induced intracellular calcium flux pretreated for 60 mins followed by trypsin addition by Fluo-8 NW dye based FLIPR assay
- Type: functional, cell-based
measurement-type: IC50 (µM)
The answer is to be given in µM; state only the numeric part.

{"columns": ["line-notation", "measurement-target", "IC50, µM"],
 "data": [
  ["C[C@@H](C1CCCCC1)n1c(-c2cc3c(cc2Br)OCO3)nc2cc(C(=O)Nc3ccc(C#N)cc3)ccc21", "Proteinase-activated receptor 2 (Homo sapiens, UniProt P55085)", 6.6]
]}

Briefly, IC50 measured for CCCc1cc(F)ccc1[C@H](O)c1ncc[nH]1 : 4.2

----------
Parameter remaining at 0.5 h, 1 µM: see the listing below.
- assay-notes: Metabolic stability in human liver microsomes assessed as parent compound remaining at 1 uM preincubated for 5 mins followed by NADPH addition measured after 30 mins by LC-MS/MS analysis
- Assay type: ADME, microsome
- test-settings: read-out: Stability
The answer is to be given in %; state only the numeric part.

As a guide, the following entries are already answered.
{"columns": ["compound", "meas-value"],
 "data": [
  ["O[C@@H](CCc1ccc(F)cc1)C[C@@H](O)c1cc(-c2ccccc2)on1", 73],
  ["COc1cc(/C=C/C(=O)CC(=O)/C=C/c2ccc(O)c(OC)c2)ccc1O [CURCUMIN]", 21],
  ["COc1ccc(CC[C@H](O)C[C@@H](O)c2cc(-c3ccccc3)on2)cc1", 32],
  ["COc1ccc(CC[C@H](O)C[C@H](O)c2cc(-c3ccccc3)on2)cc1", 33]
]}

Briefly, remaining at 0.5 h, 1 µM measured for O[C@@H](CCc1ccc(F)cc1)C[C@H](O)c1cc(-c2ccccc2)on1 : 84

----------
- assay-notes: Kinetic solubility of the compound in phosphate buffer at pH 7.4 at 0.0098 to 10 mM by turbidometric method
- Type: physicochemical
- test-settings: read-out: Kinetic_solubility
measurement-type: solubility kinetic (µM)
The answer is to be given in µM; state only the numeric part.

{"columns": ["molecule", "solubility kinetic [µM]"],
 "data": [
  ["COc1ccc(CC[C@H](O)C[C@@H](O)c2cc(-c3ccccc3)on2)cc1", 25],
  ["COc1ccc(-c2cc([C@@H](O)C[C@@H](O)CCc3ccc(Cl)cc3)no2)cc1", 12],
  ["COc1cccc(CC[C@H](O)C[C@@H](O)c2cc(-c3ccccc3)on2)c1", 25]
]}

Turning now to a further molecule:
Briefly, solubility kinetic measured for COc1cc(/C=C/C(=O)CC(=O)/C=C/c2ccc(O)c(OC)c2)ccc1O [CURCUMIN] : 3

----------
Parameter Papp B→A at 1.5 h, 5 µM: see the listing below.
- assay-notes: Permeability from basolateral to apical side in human Caco2 cells at 5 uM after 90 mins
- Format: ADME, cell-based
- test-settings: Caco-2, read-out: permeability

As a guide, the following entries are already answered.
{"columns": ["line-notation", "measurement-type", "meas-value"],
 "data": [
  ["O[C@@H](CCc1ccc(F)cc1)C[C@H](O)c1cc(-c2ccccc2)on1", "Papp B→A at 1.5 h, 5 µM", "5.8 ×10⁻⁶ cm/s"],
  ["COc1cc(/C=C/C(=O)CC(=O)/C=C/c2ccc(O)c(OC)c2)ccc1O", "Papp B→A at 1.5 h, 5 µM", "< 0.5 ×10⁻⁶ cm/s"]
]}

Turning now to a further compound:
Briefly, Papp B→A at 1.5 h, 5 µM measured for O[C@@H](CCc1ccc(F)cc1)C[C@@H](O)c1cc(-c2ccccc2)on1 : 5 ×10⁻⁶ cm/s

----------
- assay-notes: Permeability from apical to basolateral side in human Caco2 cells at 5 uM after 90 mins
- Format: ADME, cell-based
- test-settings: Caco-2, read-out: permeability
measurement-type: Papp A→B at 1.5 h, 5 µM (×10⁻⁶ cm/s)
The answer is to be given in ×10⁻⁶ cm/s; state only the numeric part.

{"columns": ["line-notation", "Papp A→B at 1.5 h, 5 µM / ×10⁻⁶ cm/s"],
 "data": [
  ["O[C@@H](CCc1ccc(F)cc1)C[C@H](O)c1cc(-c2ccccc2)on1", 7.4]
]}

Briefly, Papp A→B at 1.5 h, 5 µM measured for O[C@@H](CCc1ccc(F)cc1)C[C@@H](O)c1cc(-c2ccccc2)on1 : 6.3

----------
- measurement-target: Amyloid-beta precursor protein (Homo sapiens, UniProt P05067)
- Sequence (P05067 whole entry): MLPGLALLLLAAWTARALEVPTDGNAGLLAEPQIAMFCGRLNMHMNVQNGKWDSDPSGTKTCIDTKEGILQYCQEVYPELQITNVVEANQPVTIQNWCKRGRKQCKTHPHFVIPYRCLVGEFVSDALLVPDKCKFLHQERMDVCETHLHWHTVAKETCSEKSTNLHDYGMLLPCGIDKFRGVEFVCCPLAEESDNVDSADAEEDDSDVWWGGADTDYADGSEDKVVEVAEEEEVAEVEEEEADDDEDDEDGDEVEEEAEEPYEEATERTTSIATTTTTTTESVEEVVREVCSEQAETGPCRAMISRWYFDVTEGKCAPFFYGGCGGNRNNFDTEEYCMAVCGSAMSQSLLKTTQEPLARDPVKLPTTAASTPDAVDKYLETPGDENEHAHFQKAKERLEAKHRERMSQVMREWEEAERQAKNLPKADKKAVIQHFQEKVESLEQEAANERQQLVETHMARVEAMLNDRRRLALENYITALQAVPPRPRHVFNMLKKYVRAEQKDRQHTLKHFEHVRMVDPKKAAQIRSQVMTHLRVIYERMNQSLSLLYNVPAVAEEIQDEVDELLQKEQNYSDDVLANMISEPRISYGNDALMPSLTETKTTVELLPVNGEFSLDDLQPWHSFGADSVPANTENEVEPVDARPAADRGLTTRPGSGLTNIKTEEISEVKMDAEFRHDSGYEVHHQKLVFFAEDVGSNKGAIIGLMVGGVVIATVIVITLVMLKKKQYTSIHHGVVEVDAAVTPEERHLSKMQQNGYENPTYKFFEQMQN
- assay-notes: Displacement of [125I]IMPY from fibrillar amyloid beta 42 (unknown origin) after 3 hrs
measurement-type: IC50

Observed IC50, Amyloid-beta precursor protein (Homo sapiens, UniProt P05067), COc1cc(/C=C/c2cc(/C=C/c3ccc(O)c(OC)c3)on2)ccc1O : 138 nM

----------
Parameter remaining at 0.5 h, 1 µM: see the listing below.
- assay-notes: Metabolic stability in human liver microsomes assessed as parent compound remaining at 1 uM preincubated for 5 mins followed by NADPH addition measured after 30 mins by LC-MS/MS analysis
- Assay type: ADME, microsome
- test-settings: read-out: Stability

Briefly, remaining at 0.5 h, 1 µM measured for COc1ccc(CC[C@H](O)C[C@H](O)c2cc(-c3ccc(OC)cc3)on2)cc1 : < 20%

Briefly, remaining at 0.5 h, 1 µM measured for COc1ccc(-c2cc([C@@H](O)C[C@@H](O)CCc3ccc(Cl)cc3)no2)cc1 : < 20%

Briefly, remaining at 0.5 h, 1 µM measured for COc1cccc(CC[C@H](O)C[C@@H](O)c2cc(-c3ccccc3)on2)c1 : < 20%

----------
- assay-notes: Kinetic solubility of the compound in phosphate buffer at pH 7.4 at 0.0098 to 10 mM by turbidometric method
- Type: physicochemical
- test-settings: read-out: Kinetic_solubility
measurement-type: solubility kinetic (µM)
The answer is to be given in µM; state only the numeric part.

As a guide, the following entries are already answered.
{"columns": ["line-notation", "solubility kinetic, µM"],
 "data": [
  ["O[C@@H](CCc1ccc(F)cc1)C[C@@H](O)c1cc(-c2ccccc2)on1", 25],
  ["O[C@@H](CCc1ccc(F)cc1)C[C@H](O)c1cc(-c2ccccc2)on1", 25],
  ["COc1ccc(CC[C@H](O)C[C@H](O)c2cc(-c3ccccc3)on2)cc1", 25]
]}

Turning now to a further compound:
Briefly, solubility kinetic measured for COc1ccc(CC[C@H](O)C[C@H](O)c2cc(-c3ccc(OC)cc3)on2)cc1 : 12
